Ref: the Immune Epitope Database (IEDB)

molecular target: HLA-B*44:02; assay: IEDB peptide-MHC binding, purified MHC/competitive/radioactivity; filed as Kd, often an IC50 or EC50 that approximates it; bounds were set here for any values at or beyond the usual limits of such assays; conditions: source organism: Lassa virus Josiah
attribute measured: Kd (µM)
Number only, in µM; omit the unit.

Q: Report Kd for `SEGKDTPGGY` tested on HLA-B*44:02.
A: 1.45

----------
biological target: HLA-B*58:01; assay: IEDB peptide-MHC binding, purified MHC/competitive/radioactivity; filed as Kd, often an IC50 or EC50 that approximates it; bounds were set here for any values at or beyond the usual limits of such assays; conditions: source organism: Dengue virus 3 Singapore/8120/1995
attribute measured: pKd
Scale for pKd: -log10 of concentration given in mol/L; no unit attached.

Q: Please report the recorded pKd for `AAVLLLVTHY` .
A: 5.38

----------
biological target: HLA-A*32:07; assay: IEDB peptide-MHC binding, purified MHC/competitive/fluorescence; filed as Kd, often an IC50 or EC50 that approximates it; bounds were set here for any values at or beyond the usual limits of such assays; conditions: source organism: Mycobacterium tuberculosis variant bovis BCG str. Pasteur 1173P2
attribute measured: Kd (nM)
State just the number; it will be interpreted in nM.

Q: Reported Kd for `MTMITPPTF` : what is it?
A: 9.3

----------
target: HLA-B*08:01; assay: IEDB peptide-MHC binding, purified MHC/direct/fluorescence; filed as Kd, often an IC50 or EC50 that approximates it; bounds were set here for any values at or beyond the usual limits of such assays; details: source organism: Variola virus
pKd: −log10 of the molar value.
List of pKd values.

chain=YKEPNSIIL recorded_result="≤ 4.70"

Q: Consider the sequence shown here: `SYVFNFHKY` What is its recorded pKd?
A: ≤ 4.70

----------
molecular target: HLA-A*24:02; assay: IEDB peptide-MHC binding, purified MHC/direct/fluorescence; filed as Kd, often an IC50 or EC50 that approximates it; bounds were set here for any values at or beyond the usual limits of such assays; settings: source organism: Bacillus anthracis str. A0488
attribute measured: Kd

Q: # Kd lookup, item `DYLTTYFTW`
A: ≤ 1 nM

----------
molecular target: HLA-A*30:01; experiment: IEDB peptide-MHC binding, purified MHC/competitive/radioactivity; filed as Kd, often an IC50 or EC50 that approximates it; bounds were set here for any values at or beyond the usual limits of such assays; conditions: source organism: Dengue virus 3 Martinique/1243/1999
attribute measured: Kd

chain=RVRNRVSTG recorded_result="0.115 µM"

Would you kindly look at the next entry?
Q: Find the recorded Kd belonging to `KRTLTPQPME` and report it.
A: 15.1 µM

----------
pKd for assorted sequences
molecular target: HLA-A*02:03; experiment: IEDB peptide-MHC binding, purified MHC/competitive/radioactivity; filed as Kd, often an IC50 or EC50 that approximates it; bounds were set here for any values at or beyond the usual limits of such assays; settings: source organism: Lassa virus Josiah
Notebook: values listed as pKd are -log10 of the concentration (mol/L).

Some entries whose results are on file:
chain=GLVGLVTFLL recorded_result=6.91
chain=GLYNFATCGL recorded_result=8.64

For the next question, use this sequence.
Q: Requested field: pKd. Item: `YCSNIKLQVV`
A: 6.10
